FYI, the data here is from patent US20260097047A1.

# Tested on: HCT116 cells
# METHOD: Cell viability assay (CellTiter-Glo, 72 hours) in HCT116 human colorectal cancer cells
# Assay type: cell-based
# PROTOCOL CONDITIONS: Table 7; cell viability assay, CellTiter-Glo, 72 hours; scaffold drawing 42 with R^2, R^3, X/Y, Z; read-out: Activity
pIC50: −log10 of the molar value.
The following molecules are shown together with reported pIC50 values.

Q: Respond only with pIC50 recorded for C=CCCCOCCN1C(=O)c2ccccc2Sc2cc(NC(=O)c3ccoc3)ccc21
A: > 6.30

Q: Read off the recorded pIC50 for C=CCN1C(=O)c2ccccc2Sc2cc(NC(=O)c3ccoc3)ccc21 [—CH2CH═CH2; furan-3-yl; CH/CH; S]
A: > 6.30

Q: Given COCCN1C(=O)c2ccccc2Sc2cc(NC(=O)c3cc(F)c(OC)c(F)c3)ccc21 [—(CH2)2OMe; 3,5-F2,4-MeOPh; CH/CH; S] , respond with its pIC50.
A: 6.00 to 6.30

Q: # return recorded pIC50 for entry COCCN1C(=O)c2ccccc2Sc2cc(NC(=O)c3ccc(OC(F)(F)F)cc3)ccc21 [—(CH2)2OMe; 4-CF3OPh; CH/CH; S]
A: 5.30 to 6.00
